Molecular target: Protein-glutamine gamma-glutamyltransferase 2 (Homo sapiens)
Sequence (P21980 whole entry): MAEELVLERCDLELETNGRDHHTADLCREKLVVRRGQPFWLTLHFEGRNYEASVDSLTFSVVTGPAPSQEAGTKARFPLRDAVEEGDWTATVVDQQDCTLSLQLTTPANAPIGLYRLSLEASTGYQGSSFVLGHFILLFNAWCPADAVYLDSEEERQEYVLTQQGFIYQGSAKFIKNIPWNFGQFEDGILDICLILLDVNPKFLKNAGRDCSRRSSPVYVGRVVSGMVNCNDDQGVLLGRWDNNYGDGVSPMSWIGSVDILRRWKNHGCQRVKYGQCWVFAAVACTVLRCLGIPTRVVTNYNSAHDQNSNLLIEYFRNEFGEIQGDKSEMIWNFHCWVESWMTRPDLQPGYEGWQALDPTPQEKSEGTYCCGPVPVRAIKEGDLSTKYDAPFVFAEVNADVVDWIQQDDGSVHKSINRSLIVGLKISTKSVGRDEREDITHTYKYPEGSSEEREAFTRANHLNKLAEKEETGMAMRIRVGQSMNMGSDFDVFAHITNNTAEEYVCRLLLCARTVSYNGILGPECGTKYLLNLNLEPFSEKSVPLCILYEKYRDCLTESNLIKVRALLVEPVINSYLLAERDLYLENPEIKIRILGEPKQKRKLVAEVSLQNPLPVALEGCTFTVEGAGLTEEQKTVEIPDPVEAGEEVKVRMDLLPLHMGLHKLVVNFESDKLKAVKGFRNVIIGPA
Criterion: IC50 strictly under 3000 nM. Met: satisfied. Not met: not satisfied.

Use the examples below as a reference point.
>>> classification("COC(=O)c1ccc2cc(COC(=O)N3CCN(C(=O)CNC(=O)CBr)CC3)ccc2c1")
"satisfied"
>>> classification("C=CC(=O)NCC(=O)N1CCN(C(=O)OCc2ccccc2)CC1")
"not satisfied"
>>> classification("C[S+](C)CC(=O)NCC(=O)N1CCN(C(=O)OCC23CC4CC(CC(C4)C2)C3)CC1")
"satisfied"

Regarding `COC(=O)c1ccc2cc(COC(=O)N3CCN(C(=O)CNC(=O)CCl)CC3)ccc2c1` , kindly confirm whether its IC50 is beneath 3000 nM.
satisfied

Regarding `COC(=O)c1ccc(COC(=O)N2CCN(C(=O)CNC(=O)C[S+](C)C)CC2)cc1` , kindly confirm whether its IC50 is beneath 3000 nM.
not satisfied
